- TESTED TARGET: Activated human plasma kallikrein (Enzyme Research Laboratories, HPKa 1303) (human, UniProt P03952 20-638)
- Sequence (P03952 20-638 limits assumed): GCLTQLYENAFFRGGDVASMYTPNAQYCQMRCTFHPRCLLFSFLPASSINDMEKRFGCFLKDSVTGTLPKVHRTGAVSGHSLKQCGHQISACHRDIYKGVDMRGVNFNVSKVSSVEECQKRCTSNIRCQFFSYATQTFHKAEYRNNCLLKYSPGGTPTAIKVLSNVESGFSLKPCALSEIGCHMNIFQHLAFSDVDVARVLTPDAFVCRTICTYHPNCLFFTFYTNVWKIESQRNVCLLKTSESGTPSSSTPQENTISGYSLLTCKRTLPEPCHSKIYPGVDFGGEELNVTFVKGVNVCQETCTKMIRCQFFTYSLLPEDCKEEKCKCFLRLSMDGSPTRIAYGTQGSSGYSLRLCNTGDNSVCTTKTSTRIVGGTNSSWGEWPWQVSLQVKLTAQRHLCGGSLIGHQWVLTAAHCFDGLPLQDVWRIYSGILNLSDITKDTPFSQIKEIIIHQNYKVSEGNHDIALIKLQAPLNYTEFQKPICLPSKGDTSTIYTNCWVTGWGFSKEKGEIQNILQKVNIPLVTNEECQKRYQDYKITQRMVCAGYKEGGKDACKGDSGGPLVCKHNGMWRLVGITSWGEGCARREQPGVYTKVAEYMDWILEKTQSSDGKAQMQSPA
- ASSAY NOTES: cell-based or functional assay
Square brackets hold non-standard residues; d marks the D form. NMeW = CN[C@@H](Cc1c[nH]c2ccccc12)C(=O)O; NMeY = CN[C@@H](Cc1ccc(O)cc1)C(=O)O
ENDPOINT: Avg. IC50

Data request, read-out Avg. IC50, for Ac-CN[NMeY]WSPWTAC-NH2 (cysteine pairing not given here) [R2239] > 12.5 µM

Data request, read-out Avg. IC50, for Ac-CNYW[dS]PWTAC-NH2 (cysteine pairing not given here) [R2230] > 6.58 µM

Turning now to a further record.
Data request, read-out Avg. IC50, for Ac-CNYWSP[NMeW]TAC-NH2 (cysteine pairing not given here) [R2236] > 4.9 µM

# credit: patent US20150166606A1
